molecular target: Mannose-6-phosphate isomerase (Homo sapiens) (UniProt P34949); assay: MPI inhibition at elevated mannose 6-phosphate – biochemical, fluorescence intensity, high mannose 6-phosphate, primary screen (AID 1220); details: recombinant PMI enzyme, coupled fluorescence intensity; at 20 µM; stronger effect = higher value
Sequence (P34949 whole entry, looked up): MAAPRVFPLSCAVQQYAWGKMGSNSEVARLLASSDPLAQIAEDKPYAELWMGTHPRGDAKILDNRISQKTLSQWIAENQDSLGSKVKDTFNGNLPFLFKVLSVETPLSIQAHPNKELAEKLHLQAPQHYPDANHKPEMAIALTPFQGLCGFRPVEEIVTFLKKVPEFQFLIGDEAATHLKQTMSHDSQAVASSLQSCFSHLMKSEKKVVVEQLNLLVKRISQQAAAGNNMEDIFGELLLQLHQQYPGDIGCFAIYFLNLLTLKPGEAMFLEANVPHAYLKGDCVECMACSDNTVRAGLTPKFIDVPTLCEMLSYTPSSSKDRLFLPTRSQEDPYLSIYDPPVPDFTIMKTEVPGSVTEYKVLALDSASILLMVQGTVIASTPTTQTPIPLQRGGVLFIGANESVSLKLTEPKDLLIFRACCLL
Out of some 190,000 compounds screened, about 1,300 (0.68%) were called active. The full list was thinned out, with actives kept by preference.

Mol Smiles: Oc1ccc(-c2cn3c(n2)SCC3)cc1O
System Tested: Mannose-6-phosphate isomerase (Homo sapiens) (UniProt P34949)
inhibition (%): 53.1
//
Mol Smiles: COc1ccc(-n2nc3c(N)n[nH]c3cc2=O)cc1
System Tested: Mannose-6-phosphate isomerase (Homo sapiens) (UniProt P34949)
inhibition (%): -97.5
//
Mol Smiles: Cc1ccc(-c2cnc(-c3ccncc3)o2)cc1
System Tested: Mannose-6-phosphate isomerase (Homo sapiens) (UniProt P34949)
inhibition (%): -3.1
//
Mol Smiles: CCOC(=O)N/C(N)=N/c1nc2ccccc2s1
System Tested: Mannose-6-phosphate isomerase (Homo sapiens) (UniProt P34949)
inhibition (%): -3.7
//
Mol Smiles: CCOC(=O)c1c(C)oc2c1C(=O)c1ccccc1C2=O
System Tested: Mannose-6-phosphate isomerase (Homo sapiens) (UniProt P34949)
inhibition (%): -16.2
//
Mol Smiles: COc1ccc(-c2cc(C(=O)Nc3c(C)nn(Cc4ccc(Cl)cc4)c3C)no2)cc1
System Tested: Mannose-6-phosphate isomerase (Homo sapiens) (UniProt P34949)
inhibition (%): 1.1
//
Mol Smiles: C1CCCN(c2nc3nonc3nc2N2CCCCCC2)CC1
System Tested: Mannose-6-phosphate isomerase (Homo sapiens) (UniProt P34949)
inhibition (%): -3.2
//
Mol Smiles: CCOC(=O)C1CCN(C(C)=C2C(=O)c3ccccc3C2=O)CC1
System Tested: Mannose-6-phosphate isomerase (Homo sapiens) (UniProt P34949)
inhibition (%): -9.2
//
Mol Smiles: O=C(N/N=C/c1coc2ccccc2c1=O)c1cn(-c2ccccc2)nc1-c1ccc(F)cc1
System Tested: Mannose-6-phosphate isomerase (Homo sapiens) (UniProt P34949)
inhibition (%): -12.2
//
Mol Smiles: C/C(=N\N=C\c1ccc(N(C)C)cc1)c1cccc([N+](=O)[O-])c1
System Tested: Mannose-6-phosphate isomerase (Homo sapiens) (UniProt P34949)
inhibition (%): -128
//
Mol Smiles: CCOC(=O)C1CCN(C(=O)c2c(C)oc3c2C(=O)c2ccccc2C3=O)CC1
System Tested: Mannose-6-phosphate isomerase (Homo sapiens) (UniProt P34949)
inhibition (%): 55.2

* * *

molecular target: Mannose-6-phosphate isomerase (Homo sapiens); assay: MPI inhibition at elevated mannose 6-phosphate – biochemical, fluorescence intensity, high mannose 6-phosphate, primary screen (AID 1220); conditions: recombinant PMI enzyme, coupled fluorescence intensity; at 20 µM; stronger effect = higher value
Screen size: about 190,000 compounds; about 1,300 (0.68%) were called active. The entries come from a sample that favours actives as a whole.
Listed here are compounds together with their documented inhibition.
Metric: inhibition (%)

Compound: CC(=O)NC(CC(=O)NC12CC3CC(CC(C3)C1)C2)c1ccccc1 (stereo unspecified)
Numeric Result: 1.3
//
Compound: Cc1ccc(C)c(N2CCN(C(=O)CNS(=O)(=O)c3cccs3)CC2)c1
Numeric Result: -4.9
//
Compound: OCCn1c(CSc2nc3ccccc3n2CCO)nc2ccccc21
Numeric Result: 3
//
Compound: Cc1cc(C)c(S(=O)(=O)c2ccccc2)c(Cl)n1
Numeric Result: 5.7
//
Compound: CC(C)CCNC(=S)Nc1ccccc1F
Numeric Result: -14.2
//
Compound: CCCCNC(=S)Nc1ccccc1F
Numeric Result: 59

* * *

target: Mannose-6-phosphate isomerase (Homo sapiens) (UniProt P34949); assay: MPI inhibition at elevated mannose 6-phosphate – biochemical, fluorescence intensity, high mannose 6-phosphate, primary screen (AID 1220); conditions: recombinant PMI enzyme, coupled fluorescence intensity; at 20 µM; stronger effect = higher value
Screen size: about 190,000 compounds; about 1,300 (0.68%) were called active. Shown is part of a subset that was picked to be rich in actives.
Listed here are compounds together with their documented inhibition.

Compound: COc1ccc(NC(=O)c2onc(C)c2Cl)cc1OC
System Tested: Mannose-6-phosphate isomerase (Homo sapiens) (UniProt P34949)
inhibition (%): -15

Compound: CC(=O)Nc1c([N+](=O)[O-])cc2[nH]c(=O)[nH]c2c1[N+](=O)[O-]
System Tested: Mannose-6-phosphate isomerase (Homo sapiens) (UniProt P34949)
inhibition (%): 56.9

Compound: O=C(N/N=C/c1c[nH]c2ccccc12)c1cc(-c2ccccc2)n[nH]1
System Tested: Mannose-6-phosphate isomerase (Homo sapiens) (UniProt P34949)
inhibition (%): -2.4

Compound: CCC1CCCCN1C(=O)c1c[nH]c2ccc(S(=O)(=O)N(C)c3ccc(Cl)cc3)cc2c1=O (stereo not given)
System Tested: Mannose-6-phosphate isomerase (Homo sapiens) (UniProt P34949)
inhibition (%): 1.6

Compound: CCOC(=O)N1CCC(N2Cc3cccc(C(=O)Nc4ccc(F)cc4)c3C2=O)CC1
System Tested: Mannose-6-phosphate isomerase (Homo sapiens) (UniProt P34949)
inhibition (%): -3.9

Compound: CCOc1cccc(OCCOc2ccc(C(=O)c3ccccc3)cc2)c1
System Tested: Mannose-6-phosphate isomerase (Homo sapiens) (UniProt P34949)
inhibition (%): 10.2

Compound: O=C(c1ccccc1)N(Cc1cccnc1)C1(C(=O)Nc2ccccc2)CCCCC1
System Tested: Mannose-6-phosphate isomerase (Homo sapiens) (UniProt P34949)
inhibition (%): -14

Compound: O=C(NCCC1=CCCCC1)C(=O)NCC(c1ccco1)N1CCN(c2ccc(F)cc2)CC1 (stereo not given)
System Tested: Mannose-6-phosphate isomerase (Homo sapiens) (UniProt P34949)
inhibition (%): 2.7

Compound: CN(C)c1c([N+](=O)[O-])cc2[nH]c(=O)[nH]c2c1[N+](=O)[O-]
System Tested: Mannose-6-phosphate isomerase (Homo sapiens) (UniProt P34949)
inhibition (%): 9.6

Compound: O=c1[nH]c2cc([N+](=O)[O-])c(NCCO)c([N+](=O)[O-])c2[nH]1
System Tested: Mannose-6-phosphate isomerase (Homo sapiens) (UniProt P34949)
inhibition (%): 3.7

* * *

biological target: Mannose-6-phosphate isomerase (Homo sapiens); assay: MPI inhibition at elevated mannose 6-phosphate – biochemical, fluorescence intensity, high mannose 6-phosphate, primary screen (AID 1220); conditions: recombinant PMI enzyme, coupled fluorescence intensity; at 20 µM; stronger effect = higher value
About 1,300 (0.68%) of roughly 190,000 compounds were called active. This is one part of a sample in which actives are shown more often than they occur.

Compound: O=C(NC1CC1)C1=C[C@@H](c2ccc(Br)cc2)C[C@@H](OCCCCO)O1
Unit Descriptor: %
inhibition: -2.7
//
Compound: CN1CCN(C(=O)C2=C[C@@H](c3ccc(C(F)(F)F)cc3)C[C@@H](OCCCCO)O2)CC1
Unit Descriptor: %
inhibition: 1.4
//
Compound: Cc1cc(C)nc(/N=C2\NC(=O)CC(C(=O)O)N2c2ccc(F)c(Cl)c2)n1 (stereo not given)
Unit Descriptor: %
inhibition: -5.5
//
Compound: CCN(CC)C(=O)C(=O)Nc1ccc(OCc2ccccc2)cc1
Unit Descriptor: %
inhibition: 0.5
//
Compound: O=C(C1=C[C@H](c2ccc(C(F)(F)F)cc2)C[C@H](OCCCCO)O1)N1CCOCC1
Unit Descriptor: %
inhibition: -0.7

* * *

target: Mannose-6-phosphate isomerase (Homo sapiens) (UniProt P34949); assay: MPI inhibition at elevated mannose 6-phosphate – biochemical, fluorescence intensity, high mannose 6-phosphate, primary screen (AID 1220); conditions: recombinant PMI enzyme, coupled fluorescence intensity; at 20 µM; stronger effect = higher value
The campaign covered roughly 190,000 compounds. About 1,300 (0.68%) were called active. Only a selection was taken, and actives are over-represented in it overall.
Listed here are compounds together with their documented inhibition.

Compound: CN(Cc1cc([N+](=O)[O-])c2cccnc2c1O)C1CCCCC1
inhibition: 51.8% (active)

Compound: CCCCOc1ccc(Cc2c(COCC)[nH]c(=S)[nH]c2=O)cc1
inhibition: -4.9% (inactive)

Compound: C=CCn1c(SCC(=O)Nc2ccc3c(c2)OCO3)nnc1-c1ccccc1
inhibition: 25.6% (inactive)

Compound: O=C(NCCN1CCOCC1)c1cc2cc(Br)ccc2oc1=O
inhibition: 9.2% (inactive)

Compound: O=C(CSc1ncn(-c2ccccc2)n1)Nc1nncs1
inhibition: 5.2% (inactive)

Compound: COc1cccc(C=NCC(C)N=Cc2cccc(OC)c2O)c1O (stereo not drawn)
inhibition: 52.3% (active)

Compound: O=C1c2ccccc2-c2onc3ccc(NCc4ccco4)c1c23
inhibition: 58.1% (active)

Compound: O=C(NCCCN1CCCC1=O)C1CCCO1 (stereo not drawn)
inhibition: 5.1% (inactive)

Compound: Cc1nc2ccc(NC(=S)NC3CC3)cc2nc1C
inhibition: 46.4% (inactive)

Compound: Cc1sc2nc(CN3CCOCC3)nc(NCCc3ccccc3)c2c1C
inhibition: 2% (inactive)

Compound: CC1(C)CC(=O)C(C=Nc2ccc(NC3=C(C#N)C(=O)CC(C)(C)C3)cc2)=C(O)C1
inhibition: 60.4% (active)

Compound: CC1=C(C(=O)N2CCOCC2)C(c2cccc(C)c2)NC(=S)N1 (stereo not drawn)
inhibition: -12.7% (inactive)

Compound: CCN(CC)c1cccc(OCC(=O)N(C)CCC#N)c1
inhibition: 53.3% (active)

Compound: O=[N+]([O-])c1cc(Cl)c(O)c2ncccc12
inhibition: 32.5% (inactive)

Compound: O=[N+]([O-])c1cc(CN2CCN(c3ccccc3)CC2)c(O)c2ncccc12
inhibition: 35.7% (inactive)

Compound: N#CC1=C(N)Oc2c(ccc3ccccc23)C1c1cccs1 (stereo not drawn)
inhibition: 3.4% (inactive)

Compound: COc1cccc(/C=N/NC(=O)C(=O)N/N=C/c2cccc(OC)c2O)c1O
inhibition: -27.8% (inactive)

Compound: N#CC1=C(N)Oc2c(ccc3ccccc23)C1c1ccsc1 (stereo not drawn)
inhibition: 53.2% (active)

Compound: O=C(CCCCn1c(=O)c2ccccc2n(CC(=O)Nc2cccc(F)c2)c1=O)NCc1ccco1
inhibition: 9.4% (inactive)

Compound: CCOc1ccc(NC(=O)c2ccccc2O)cc1
inhibition: -0.8% (inactive)

Compound: CCOc1ccc2noc3c2c1C(=O)c1ccccc1-3
inhibition: 19% (inactive)

Compound: O=C1c2cccc3cccc(c23)C(=O)N1c1nccs1
inhibition: 8.2% (inactive)

Compound: CN(CCC#N)C(=O)COc1ccc(Br)cc1Cl
inhibition: -5.3% (inactive)

Compound: N#CC1=C(N)Oc2c(O)cc3ccccc3c2C1c1ccsc1 (stereo not drawn)
inhibition: 30.3% (inactive)

Compound: CC(C)C(=O)NC(c1ccco1)c1ccc2cccnc2c1O (stereo not drawn)
inhibition: 37.8% (inactive)

Compound: Cc1cc(C)c(C(=O)/C=C/C=C/c2ccccc2)c(=O)[nH]1
inhibition: 22.8% (inactive)

Compound: O=C1c2ccccc2-c2onc3ccc(NCCCn4ccnc4)c1c23
inhibition: 14.4% (inactive)

Compound: CCN(CC(=O)Nc1ccc2c(c1)OCCO2)CC(=O)Nc1ccc2c(c1)OCO2
inhibition: 5.7% (inactive)

Compound: CC(C)c1onc(C(=O)NCc2cccs2)c1[N+](=O)[O-]
inhibition: -6.7% (inactive)

Compound: CCOc1ccccc1N1CCN(CC(=O)Nc2nnc(CC)s2)CC1
inhibition: -13% (inactive)

Compound: COc1cccc(C=Nc2cc(C)cc(C)c2)c1O
inhibition: 17.1% (inactive)

Compound: COc1ccc(-n2c(C(C)(C)C)csc2=Nc2c(C)n(C)n(-c3ccccc3)c2=O)cc1
inhibition: 5.7% (inactive)

Compound: CN(C)/C=N/C1=C(C#N)C(c2cccs2)c2ccc3ccccc3c2O1 (stereo not drawn)
inhibition: 55.2% (active)

Compound: CN(C)CCCNc1oc(-c2ccccc2)nc1C#N
inhibition: -7.3% (inactive)

Compound: CCOc1ccc(N=C(NN)c2ccc3ccccc3n2)cc1
inhibition: -57.4% (inactive)

Compound: CC(=O)Nc1c(O)c2ccccc2[nH]c1=O
inhibition: 17.5% (inactive)

Compound: Cc1onc(-c2c(F)cccc2Cl)c1C(=O)OCC(=O)Nc1c(C)n(C)n(-c2ccccc2)c1=O
inhibition: -18.7% (inactive)

Compound: CCCOc1ccc(C(=O)c2nc3c(n2O)CCCC3)cc1
inhibition: -4.1% (inactive)

Compound: O=[N+]([O-])c1cc(CN2CCCC2)c2cccnc2c1O
inhibition: 44.4% (inactive)

Compound: COc1ccc(O)c(C=NCC(C)N=Cc2cc(OC)ccc2O)c1 (stereo not drawn)
inhibition: 51.9% (active)

Compound: N#CC1=C(N)Oc2cc3ccccc3cc2C1c1cccs1 (stereo not drawn)
inhibition: 7.9% (inactive)

Compound: CC(C)C(=O)NC(c1cccs1)c1cc([N+](=O)[O-])c2cccnc2c1O (stereo not drawn)
inhibition: 46.5% (inactive)

Compound: O=C(O)Cc1c[nH]c2cccc(O)c12
inhibition: 51.5% (active)

Compound: O=S(=O)(Cc1ccc(Cl)cc1)NCC1CCCO1 (stereo not drawn)
inhibition: 14.9% (inactive)

Compound: COc1ccc(O)c(C=Nc2cc(C)on2)c1
inhibition: 23.9% (inactive)

Compound: CCC(=O)N1CCN(c2ccccc2NC(=O)Cc2ccccc2)CC1
inhibition: 3.5% (inactive)

Compound: CCOc1cc(CNCc2ccccn2)cc(Cl)c1OC
inhibition: -0.7% (inactive)

Compound: O=C1c2ccccc2-c2onc3ccc(N4CCCC4)c1c23
inhibition: 62.6% (active)
